Please provide measured melting point for the entries that follow.

Reported melting point for `CC(C)(C)c1ccc2oc(=O)cc(CSc3nc4ccccc4o3)c2c1` : what is it?
212 to 214 °C

Reported melting point for `Cc1ccc2oc(=O)cc(CSc3nc4ccccc4[nH]3)c2c1` : what is it?
190 to 192 °C

Reported melting point for `COc1ccc2nc(SCc3cc(=O)oc4ccc(C)cc34)[nH]c2c1` : what is it?
176 to 178 °C

Reported melting point for `CC(C)(C)c1ccc2oc(=O)cc(CSc3nc4ccccc4[nH]3)c2c1` : what is it?
189 to 190 °C

Reported melting point for `Cc1ccc2oc(=O)cc(CSc3nc4ccccc4s3)c2c1` : what is it?
192 to 194 °C
